Cited source: ChEMBL document CHEMBL1146776

Target: Neuromedin-B receptor (Homo sapiens, UniProt P28336)
Sequence (P28336 whole entry): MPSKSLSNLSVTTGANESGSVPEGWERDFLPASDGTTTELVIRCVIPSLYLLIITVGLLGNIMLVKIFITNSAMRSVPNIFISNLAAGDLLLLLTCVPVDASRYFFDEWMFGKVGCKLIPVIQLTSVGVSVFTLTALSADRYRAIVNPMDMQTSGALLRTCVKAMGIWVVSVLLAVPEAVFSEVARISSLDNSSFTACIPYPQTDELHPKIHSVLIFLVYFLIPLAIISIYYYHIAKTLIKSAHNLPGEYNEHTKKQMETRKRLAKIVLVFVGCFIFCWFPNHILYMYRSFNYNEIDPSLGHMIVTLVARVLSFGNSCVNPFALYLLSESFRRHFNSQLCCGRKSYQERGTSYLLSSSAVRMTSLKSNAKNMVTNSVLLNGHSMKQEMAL
Assay: Affinity of [125I][D-Tyr0]-NMB to human Neuromedin B receptor expressed in HEK293 cells
pIC50: −log10 of the molar value.
# pIC50 listing for each entry below
parameter measured: pIC50

>>> print(df.to_string())
                                   compound  result
0  CC(C)c1cccc(C(C)C)c1NC(=O)NC1(C(=O)NCC2(c3ccccn3)CCCCC2)CCc2[nH]c3cccc(C(=O)O)c3c2C1 (stereo not given)  < 5.00
1  NC(=O)NC1(C(=O)NCC2(c3ccccn3)CCCCC2)CCc2[nH]c3ccccc3c2C1 (stereo not given)  < 5.00
2  CC(C)c1cccc(C(C)C)c1NC(=O)NC1(C(=O)NCC2(c3ccc(Cl)cc3)CC2)CCc2[nH]c3ccccc3c2C1 (stereo not given)  < 5.00
3  CC(C)c1cccc(C(C)C)c1NC(=O)NC1(C(=O)NCC2(c3ccccn3)CCCCC2)CCc2[nH]c3cccc([N+](=O)[O-])c3c2C1 (stereo not given)  < 5.00
4  CCOC(=O)c1cc(NC(=O)NC2(C(=O)NCC3(c4ccccn4)CCCCC3)CCc3[nH]c4ccccc4c3C2)cc(C(=O)OCC)c1 (stereo not given)    5.73
5  CCNC(=O)NC1(C(=O)NCC2(c3ccccn3)CCCCC2)CCc2[nH]c3ccccc3c2C1 (stereo not given)  < 5.00
6  Cc1ccc2[nH]c3c(c2c1)C(C)C(NC(=O)Nc1c(C(C)C)cccc1C(C)C)(C(=O)NCC1(c2ccccn2)CCCCC1)CC3 (stereo in doubt; 23)    6.10
7  O=C(Nc1ccc([N+](=O)[O-])cc1)NC1(C(=O)NCCc2ccccn2)CCc2[nH]c3ccccc3c2C1 (stereo not given)  < 5.00
8  CC(C)c1cccc(C(C)C)c1NC(=O)NC1(C(=O)NCC2(c3ccccn3)CCCCC2)CCc2[nH]c3cccc(C(F)(F)F)c3c2C1 (stereo not given)    5.44
9  O=C(Nc1ccc([N+](=O)[O-])cc1)NC1(C(=O)NCC2(c3ccccn3)CCS(=O)(=O)CC2)CCc2[nH]c3ccccc3c2C1 (stereo not given)  < 5.00
